Data origin, for the record: PubChem BioAssay AID651551

- measurement_description: GAPDH versus PEG-3 reporter suppression – cell-based, luminescence, counter-screen for PEG-3 promoter inhibitor project, SAR follow-up (AID 651551)
- applied_conditions: HeLa PEG-Prom / GAPDH luciferase reporter, 6 or 24 h, run 2, 24 h; at 99 µM (top of the series)
Reported values of inhibition % (higher = more inhibition) for individual entries
Give just the number in %; leave the unit off.

In: Query (molecule): `CCCn1nc(C(=O)Nc2nc(-c3ccncc3)cs2)c2ccccc2c1=O` ; field requested: inhibition % (higher = more inhibition)
Out: 72

In: Query (molecule): `Cc1cc(NC(=O)c2ccccc2C)n(-c2nc3ccccc3[nH]2)n1` ; field requested: inhibition % (higher = more inhibition)
Out: 76.4

* * *

- measurement_description: GAPDH versus PEG-3 reporter suppression – cell-based, luminescence, counter-screen for PEG-3 promoter inhibitor project, SAR follow-up (AID 651551)
- applied_conditions: HeLa PEG-Prom / GAPDH luciferase reporter, 6 or 24 h, run 2, 24 h; at 99 µM (top of the series)
Reported values of inhibition % (higher = more inhibition) for individual entries
Give just the number in %; leave the unit off.

Some entries whose results are on file:
* CCCn1nc(C(=O)Nc2nc(-c3ccccn3)cs2)c2ccccc2c1=O | 71.7
* O=C(Nc1nc2ccccc2s1)c1nn(-c2ccccc2)c(=O)c2ccccc12 | 60.8
* Cc1nc(NC(=O)c2ccccc2)sc1-c1csc(Nc2cccc(Cl)c2C)n1 | 46.8

In: Query (compound): `Cc1cc(NC(=O)c2ccccc2)n(-c2nc3ccccc3n2C)n1` ; field requested: inhibition % (higher = more inhibition)
Out: 4.57

In: Query (compound): `COc1ccc(-n2nc(C(=O)NCC(=O)Nc3cc(OC)c(OC)c(OC)c3)c3ccccc3c2=O)cc1OC` ; field requested: inhibition % (higher = more inhibition)
Out: 71.7

* * *

- measurement_description: GAPDH versus PEG-3 reporter suppression – cell-based, luminescence, counter-screen for PEG-3 promoter inhibitor project, SAR follow-up (AID 651551)
- applied_conditions: HeLa PEG-Prom / GAPDH luciferase reporter, 6 or 24 h, run 2, 24 h; at 99 µM (top of the series)
reported_endpoint: inhibition % (higher = more inhibition) (%)
Give just the number in %; leave the unit off.

Some entries whose results are on file:
* Cc1nc(NC(=O)c2ccccc2)sc1-c1csc(Nc2ccccc2)n1 | 87.7
* O=C(Nc1nc(-c2ccccc2)cs1)c1nn(-c2ccccc2)c(=O)c2ccccc12 | 43.1

In: Query (compound): `COc1ccc(-n2nc(C(=O)NCC(=O)Nc3cccc(OC)c3)c3ccccc3c2=O)cc1` ; field requested: inhibition % (higher = more inhibition)
Out: 27.5

* * *

Reported values of inhibition % (higher = more inhibition) for individual entries
- measurement_description: GAPDH versus PEG-3 reporter suppression – cell-based, luminescence, counter-screen for PEG-3 promoter inhibitor project, SAR follow-up (AID 651551)
- applied_conditions: HeLa PEG-Prom / GAPDH luciferase reporter, 6 or 24 h, run 2, 24 h; at 99 µM (top of the series)
Please report the result as a number followed by the unit.

Some entries whose results are on file:
* COc1ccc(Cl)cc1Nc1nc(-c2sc(NC(=O)c3ccccc3)nc2C)cs1 | 75.6%
* Cc1cc(NC(=O)c2cccc(C)c2C)n(-c2nc3ccccc3[nH]2)n1 | 54.6%

Then there is this compound:
In: Query (compound): `CCn1cc(C(=O)NCc2ccco2)c(=O)c2cc(S(=O)(=O)N3CCCC3)ccc21` ; field requested: inhibition % (higher = more inhibition)
Out: 48.4%

* * *

- measurement_description: GAPDH versus PEG-3 reporter suppression – cell-based, luminescence, counter-screen for PEG-3 promoter inhibitor project, SAR follow-up (AID 651551)
- applied_conditions: HeLa PEG-Prom / GAPDH luciferase reporter, 6 or 24 h, run 2, 24 h; at 99 µM (top of the series)
reported_endpoint: inhibition % (higher = more inhibition) (%)
Give just the number in %; leave the unit off.

Some entries whose results are on file:
• CCn1nc(C(=O)Nc2nc(-c3ccccn3)cs2)c2ccccc2c1=O = 53.9
• Cc1cc(NC(=O)c2ccccc2)n(-c2nc3ccccc3[nH]2)n1 = -1.45

Then there is this molecule:
In: Query (molecule): `COc1ccccc1Nc1nc(-c2sc(NC(=O)c3ccco3)nc2C)cs1` ; field requested: inhibition % (higher = more inhibition)
Out: 76.4
